# Tested on: HCV replicon cells
# protocol_text: Cell-based HCV replicon assay (replicon RNA level by real time PCR, Taqman)
# protocol_conditions: Hepatitis C virus, 72 h, HCV replicon cells, replicon RNA level by real time PCR, harvested day 3; read-out: EC90 (μM) range
# Description: Assays Cell-Based HCV Replicon Assay To measure cell-based anti-HCV activity of the compounds of the present invention, replicon cells were seeded at 5000 cells/well in 96-well collagen I-coated Nunc plates in the presence of the compound of the invention. […] The replicon RNA level was measured using real time PCR (Taqman assay). […]
Measured EC90 accompanies every entry in the list below.

Recorded results for 5 compounds are shown here.
{"columns": ["compound", "EC90"],
 "data": [
  ["Cc1nc(O)nc(N[C@@H]2C[C@H](CO)[C@@H](O)[C@H]2O)c1-c1nc2ccccc2s1 [Example 1605]", "> 5 µM"],
  ["Cc1nc(NCC(F)(F)F)nc(NC[C@@H]2CC2(CO)CO)c1-c1nc2ccccc2s1 [Example 1618]", "0.5 to 5 µM"],
  ["CO[C@@H]1[C@H](O)[C@@H](CO)C[C@H]1Nc1nc(NCC(F)(F)F)nc(C)c1-c1nc2ccccc2s1 [Example 1341]", "< 0.5 µM"],
  ["CCCc1nccc2sc(-c3c(C)nc(N[C@H](C)C4CC4)nc3N[C@@H]3C[C@H](CN(C)S(C)(=O)=O)[C@@H](O)[C@H]3O)nc12 [Example 1389]", "< 0.5 µM"],
  ["Cc1nc(NCc2cc3cn[nH]c3cc2F)nc(N[C@@H]2C[C@H](CO)[C@@H](O)[C@H]2O)c1-c1nc2cnccc2s1 [Example 1911]", "< 0.5 µM"]
]}

Please indicate EC90 recorded for Cc1nc(NCC(F)(F)F)nc(N[C@@H]2C[C@H](CNC(=O)CO)[C@@H](O)[C@H]2O)c1-c1nc2ccccc2s1 [Example 1508]
0.5 to 5 µM

Please indicate EC90 recorded for Cc1nc(N[C@@H](c2cccs2)C(F)(F)F)nc(N[C@@H]2C[C@H](CO)[C@@H](O)[C@H]2O)c1-c1nc2ccccc2s1 [Example 1801]
< 0.5 µM

###

# Tested on: HCV replicon cells
# protocol_text: Cell-based HCV replicon assay (replicon RNA level by real time PCR, Taqman)
# protocol_conditions: Hepatitis C virus, 72 h, HCV replicon cells, harvested day 3, replicon RNA by real time PCR; reported as range class; read-out: EC90 (μM) range
# Description: Assays Cell-Based HCV Replicon Assay To measure cell-based anti-HCV activity of the compounds of the present invention, replicon cells were seeded at 5000 cells/well in 96-well collagen I-coated Nunc plates in the presence of the compound of the invention. […] The replicon RNA level was measured using real time PCR (Taqman assay). […]
value_kind: EC90

{"columns": ["molecule", "EC90"],
 "data": [
  ["Nc1nc(Cl)c(-c2nc3c(F)cc(F)cc3s2)c(N[C@@H]2C[C@H](CO)[C@@H](O)[C@H]2O)n1 [Example 189]", "0.5 to 5 µM"],
  ["CCCc1cc2cc(-c3c(Cl)nc(NC)nc3N[C@@H]3C[C@H](CO)[C@@H](O)[C@H]3O)oc2c(C)n1 [Example 312]", "< 0.5 µM"],
  ["Nc1nc(Cl)c(-c2cc3cc(F)c(F)cc3o2)c(N[C@@H]2C[C@H](CO)[C@@H](O)[C@H]2O)n1 [Example 169]", "> 5 µM"],
  ["Cc1nc(N)nc(N[C@@H]2C[C@H](CO)[C@@H](O)[C@H]2O)c1-c1nc2ccccc2s1 [Example 119]", "< 0.5 µM"]
]}

Please indicate EC90 recorded for CCCOc1cc2cc(-c3c(C)nc(NCCOC)nc3N[C@@H]3C[C@H](CO)[C@@H](O)[C@H]3O)oc2cn1 [Example 60]
> 5 µM

Please indicate EC90 recorded for OC[C@H]1C[C@@H](Nc2ncnc(Cl)c2-c2nc3ccccc3s2)[C@H](O)[C@@H]1O [Example 118]
> 5 µM

Please indicate EC90 recorded for COC[C@H]1C[C@@H](Nc2nc(N(C)C)nc(C)c2-c2nc3ccccc3s2)[C@H](O)[C@@H]1O [Example 123]
> 5 µM

###

# System: HCV replicon cells
# protocol_text: Cell-based HCV replicon assay (replicon RNA level by real time PCR, Taqman)
# protocol_conditions: Hepatitis C virus, 72 h, HCV replicon cells, replicon RNA level by real time PCR, harvested day 3; read-out: EC90 (μM) range
value_kind: EC90

{"columns": ["compound", "EC90"],
 "data": [
  ["Cc1nc(NCc2c(F)cccc2F)nc(N[C@@H]2C[C@H](CO)[C@@H](O)[C@H]2O)c1-c1nc2ccccc2s1", "< 0.5 µM"],
  ["Cc1ccc([C@@H](C)Nc2cc(C)c(-c3nc4ccccc4s3)c(N[C@@H]3C[C@H](CO)[C@@H](O)[C@H]3O)n2)cc1", "> 5 µM"],
  ["Cc1nc(NCC2CC2)nc(NC[C@@H]2CC2(CO)CO)c1-c1nc2ccccc2s1", "> 5 µM"]
]}

Name the recorded EC90 of Cc1nc(NCC2CC2)nc(N[C@@H]2C[C@H](C(C)O)[C@@H](O)[C@H]2O)c1-c1nc2cnccc2s1 (stereo partly shown) , assay system HCV replicon cells.
< 0.5 µM

###

Measured EC90 accompanies every entry in the list below.
# Test system: HCV replicon cells
# protocol_text: Cell-based HCV replicon assay (replicon RNA level by real time PCR, Taqman)
# protocol_conditions: Hepatitis C virus, 72 h, HCV replicon cells, replicon RNA level by real time PCR, harvested day 3; read-out: EC90 (μM) range

Recorded results for 2 compounds are shown here.
{"columns": ["compound", "EC90"],
 "data": [
  ["Cc1nc(NCC(F)(F)F)nc(N[C@@H]2C[C@H](CO)[C@@H](O)[C@@]2(C)O)c1-c1nc2cnccc2s1", "< 0.5 µM"],
  ["CCCc1nccc2sc(-c3c(C)nc(NCC4CC4)nc3N[C@@H]3C[C@H](CO)[C@@H](O)[C@H]3O)nc12", "< 0.5 µM"]
]}

Please indicate EC90 recorded for Cc1nc(NCC(F)(F)F)nc(N[C@@H]2C[C@H](C(O)c3ncc[nH]3)[C@@H](O)[C@H]2O)c1-c1nc2ccccc2s1 (stereo partly drawn)
0.5 to 5 µM

###

# Tested on: HCV replicon cells
# protocol_text: Cell-based HCV replicon assay (replicon RNA level by real time PCR, Taqman)
# protocol_conditions: Hepatitis C virus, 72 h, HCV replicon cells, harvested day 3, replicon RNA by real time PCR; given as number; read-out: EC90 (μM) range
value_kind: EC90 (µM)
Record the value in µM, omitting the unit from your answer.

Please indicate EC90 recorded for CCOc1cc2cc(-c3c(C)nc(NC)nc3N[C@@H]3C[C@H](CO)[C@@H](O)[C@H]3O)oc2c(C)n1
0.45

###

# Test system: HCV replicon cells
# protocol_text: Cell-based HCV replicon assay (replicon RNA level by real time PCR, Taqman)
# protocol_conditions: Hepatitis C virus, 72 h, HCV replicon cells, replicon RNA level by real time PCR, harvested day 3; read-out: EC90 (μM) range
value_kind: EC90

Recorded results for 2 molecules are shown here.
{"columns": ["molecule", "observed"],
 "data": [
  ["Cc1nc(NCC(F)(F)F)nc(N[C@@H]2C[C@H](CNS(=O)(=O)CC(C)C)[C@@H](O)[C@H]2O)c1-c1nc2ccccc2s1 [Example 1512]", "0.5 to 5 µM"],
  ["Cc1nc(N[C@H](C)c2ccc(OC(F)(F)F)cc2)nc(N[C@@H]2C[C@H](CO)[C@@H](O)[C@H]2O)c1-c1nc2c(C)nccc2s1 [Example 1528]", "< 0.5 µM"]
]}

Moving on to another molecule below.
Please indicate EC90 recorded for CO[C@@H]1[C@H](O)[C@@H](CO)C[C@H]1Nc1nc(NCC(F)(F)F)nc(C)c1-c1nc2ccccc2o1 [Example 1354]
< 0.5 µM

###

# System: HCV replicon cells
# protocol_text: Cell-based HCV replicon assay (replicon RNA level by real time PCR, Taqman)
# protocol_conditions: Hepatitis C virus, 72 h, HCV replicon cells, harvested on day 3, replicon RNA by real time PCR; calculated EC90 reported as range class; read-out: EC90 (μM) range
value_kind: EC90

Recorded results for 5 compounds are shown here.
{"columns": ["compound", "EC90"],
 "data": [
  ["Cc1nc(S(C)(=O)=O)nc(N[C@@H]2C[C@H](CO)[C@@H](O)[C@H]2O)c1-c1nc2ccccc2s1 [Example 324]", "> 5 µM"],
  ["CCOCCNc1nc(Cl)c(-c2cc3cc(CC)ncc3o2)c(N[C@@H]2C[C@H](CO)[C@@H](O)[C@H]2O)n1 [Example 512]", "< 0.5 µM"],
  ["CCC(C)(C)Nc1nc(Cl)c(-c2nc3ccccc3s2)c(N[C@@H]2C[C@H](CO)[C@@H](O)[C@H]2O)n1 [Example 506]", "< 0.5 µM"],
  ["COCc1cc2cc(-c3c(C)nc(NCC(C)(C)C)nc3N[C@@H]3C[C@H](CO)[C@H]4OC(C)(C)O[C@H]43)oc2cn1 [Example 714]", "0.5 to 5 µM"],
  ["COCCNc1nc(C)c(-c2cc3cc(C(F)(F)F)ncc3o2)c(N[C@@H]2C[C@H](CO)[C@@H](O)[C@H]2O)n1 [Example 139]", "0.5 to 5 µM"]
]}

Please indicate EC90 recorded for Cc1nc(NCCNS(C)(=O)=O)nc(N[C@@H]2C[C@H](CO)[C@H]3OC(C)(C)O[C@H]32)c1-c1nc2ccccc2s1 [Example 257]
< 0.5 µM

Please indicate EC90 recorded for Cc1nc(NCc2cccc[n+]2[O-])nc(N[C@@H]2C[C@H](CO)[C@H]3OC(C)(C)O[C@H]32)c1-c1nc2ccccc2s1 [Example 481]
> 5 µM
